# assayed-system: Nuclear receptor subfamily 1 group I member 2 (Homo sapiens)
# method: Human pregnane X receptor (PXR) small molecule agonists, qHTS assay (AID 1346982); also: nearly all actives have a fitted effect of over 35% in size
# assay-setup: PXR-Luc HepG2, CYP3A4 luciferase reporter, 24 h; series mostly up to 92.4 µM
# Source text: National Center for Advancing Translational Sciences [NCATS] NIH Chemical Genomics Center [NCGC] U.S. Environmental Protection Agency [EPA] National Institutes of Environmental Health Sciences [NIEHS] National Toxicology Program [NTP] The human pregnane X receptor (hPXR) regulates the expression of several drug metabolizing enzymes and induction of these proteins is a major mechanism for developing drug resistance in cancer. […]
Records with an inconclusive call do not appear. Active and inactive are the calls of the source. Calls follow the shape of the dose curve; as a rule, active = well fitted activation curve with a large enough effect in the repeat runs; inconclusive = weak or mixed curves; inactive = no such curve, though single readings can be large or run the other way.
Outcomes: active, inactive

{"columns": ["compound", "assayed-system", "qualitative-label"],
 "data": [
  ["CC(O)CCO (centres undefined)", "Nuclear receptor subfamily 1 group I member 2 (Homo sapiens)", "inactive"],
  ["CCCCC(CC)COC(=O)c1ccc(C(=O)OCC(CC)CCCC)c(C(=O)OCC(CC)CCCC)c1 (centres undefined)", "Nuclear receptor subfamily 1 group I member 2 (Homo sapiens)", "inactive"],
  ["Cc1cc(Cl)ccc1OCCCC(=O)O", "Nuclear receptor subfamily 1 group I member 2 (Homo sapiens)", "inactive"],
  ["CC(C)C(=O)OCC(C)(C)C(OC(=O)C(C)C)C(C)C (centres undefined)", "Nuclear receptor subfamily 1 group I member 2 (Homo sapiens)", "inactive"],
  ["Oc1cc(Cl)c(Cl)cc1Cl", "Nuclear receptor subfamily 1 group I member 2 (Homo sapiens)", "active"],
  ["C=CC(=O)OCCO", "Nuclear receptor subfamily 1 group I member 2 (Homo sapiens)", "inactive"],
  ["CCC(C)(C)c1ccc(O)cc1", "Nuclear receptor subfamily 1 group I member 2 (Homo sapiens)", "inactive"],
  ["Cc1ccccc1[N+](=O)[O-]", "Nuclear receptor subfamily 1 group I member 2 (Homo sapiens)", "inactive"],
  ["Nc1ccc(-c2ccc(N)c(N)c2)cc1N", "Nuclear receptor subfamily 1 group I member 2 (Homo sapiens)", "active"],
  ["CCCCNC(=O)n1c(NC(=O)OC)nc2ccccc21", "Nuclear receptor subfamily 1 group I member 2 (Homo sapiens)", "active"],
  ["c1ccc(N=Nc2ccccc2)cc1", "Nuclear receptor subfamily 1 group I member 2 (Homo sapiens)", "inactive"],
  ["C1=Cc2cccc3cccc1c23", "Nuclear receptor subfamily 1 group I member 2 (Homo sapiens)", "inactive"],
  ["CCCCCCCCCCCOC(=O)c1ccccc1C(=O)OCCCCCCCCCCC", "Nuclear receptor subfamily 1 group I member 2 (Homo sapiens)", "inactive"],
  ["Nn1cnnc1", "Nuclear receptor subfamily 1 group I member 2 (Homo sapiens)", "inactive"]
]}

====

# assayed-system: Nuclear receptor subfamily 1 group I member 3 (Homo sapiens)
# method: qHTS assay to identify small molecule antagonists of the constitutive androstane receptor (CAR) signaling pathway (AID 1224838);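 also: HepG2 cells stably expressing hCAR with CYP2B6 luciferase reporter stimulated by CITCO; nearly all actives have a fitted effect of over 40% in size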
# assay-setup: HepG2-CYP2B6-hCAR luciferase, CITCO-stimulated, 24 h; series mostly up to 92.4 µM
# Text: U.S. Tox21 Program National Center for Advancing Translational Sciences [NCATS] NIH Chemical Genomics Center [NCGC] U.S. Environmental Protection Agency [EPA] National Institutes of Environmental Health Sciences [NIEHS] National Toxicology Program [NTP] U.S. Food and Drug Administration [FDA] […] Tox21 Assay Protocol Summary: A double-stable (hCAR and CYP2B6-2.2kb) transfected cell line, derived from human hepatoma (HepG2) cells, was utilized for the duration of the quantitative high-throughput screens. […]
Records with an inconclusive call do not appear. The source made the active and inactive calls. The call rests on the fitted dose curve; in most records, active means well fitted inhibition curve with a large enough effect in the repeat runs; inconclusive means weak or mixed curves, or effect the other way; inactive means no such curve, though single readings can be large or run the other way.

{"columns": ["compound", "outcome"],
 "data": [
  ["CCCCN(CC)c1c([N+](=O)[O-])cc(C(F)(F)F)cc1[N+](=O)[O-]", "inactive"],
  ["C=CCN(CC=C)C(=O)C(Cl)Cl", "inactive"],
  ["N#CC(Br)Br", "inactive"],
  ["COc1ccc(C=O)cc1", "inactive"],
  ["Cc1cccc(N)c1N", "inactive"],
  ["CC(C)N(C(=O)SCC(Cl)=C(Cl)Cl)C(C)C", "inactive"],
  ["CCCCC(CC)COC(=O)Cl (configuration not stated)", "inactive"]
]}
